tested on: EKVX NSCLC; experiment: NCI tumour cell line growth inhibition, 48 h
The following compounds are shown together with reported TGI values.

Examples from the recorded data:
CC(C)(C)CNC(=O)NCn1cc(-c2ccccc2)nn1 : > 100 µM
Cc1cc(=O)[nH]c2cc(NC(=O)C(CCCN=C(N)N)NC(=O)OCc3ccccc3)ccc12 (stereo not given) : > 100 µM
Cc1ccc(NC(=O)CC/C(CC(=O)C(C)(C)C)=N/NC(=O)C[N+](C)(C)C)cc1C : > 100 µM

stdin: Give the measured TGI of `N#Cc1cc([N+](=O)[O-])ccc1NC(=O)C(F)(F)F` .
stdout: > 100 µM

stdin: Give the measured TGI of O=C(NNc1ccc(F)cc1)C1CCC(CNS(=O)(=O)c2ccc(Cl)c(Cl)c2)CC1 (stereo not given) .
stdout: > 50 µM

---

system: UACC-62 melanoma; assay: NCI tumour cell line growth inhibition, 48 h
measure_name: TGI

Examples from the recorded data:
c1ccc(CN2CCC3(CC2)SSC2(CCN(Cc4ccccc4)CC2)SS3)cc1 : > 100 µM
C[C@H](NC(=O)n1c2ccccc2c2ccccc21)C(=O)O : > 100 µM

stdin: Give the measured TGI of `O=C(c1ccco1)c1c(C(F)(F)F)nc2ccc(C(F)(F)F)cc2[n+]1[O-]` .
stdout: > 100 µM

---

The following molecules are shown together with reported GI50 values.
system: HT29 colon; assay: NCI tumour cell line growth inhibition, 48 h

Examples from the recorded data:
Clc1nc(Cl)c2c3c(sc2n1)CCCC3 : 3.67 µM
O=C(O)C1C2C=CC(C2)C1C(=O)O (stereo not given) : > 100 µM
C=C1CCC2C3(C)COC(c4c(OC)cccc4OC)OC3CCC2(C)C1C/C=C1/C(=O)OCC1O (stereo not given) : 2.51 µM
Cc1ccc(/C=C/C(=N/N=C(N)N)c2ccccc2)cc1 : 2.53 µM

Here's the next entry for you.
stdin: Give the measured GI50 of `O=C(c1ccco1)c1c(C(F)(F)F)nc2ccc(C(F)(F)F)cc2[n+]1[O-]` .
stdout: > 61.4 µM

---

system: DMS 273 small cell lung; test: NCI tumour cell line growth inhibition, 48 h
measure_name: TGI (µM)
Provide only the numeric value, understood in µM.

Examples from the recorded data:
Cc1cc2nc3ccc(=[N+](C)C)cc-3sc2cc1N : 12.2
O=C(/C=C/c1ccccc1Cl)c1cccc2ccccc12 : 31.6

Here's the next entry for you.
stdin: Give the measured TGI of C/C=C(/CCC1NCCC2c3ccccc3NC12)[Si](C)(C)C (configuration not stated) .
stdout: 21.7

---

test system: BT-549 breast; assay: NCI tumour cell line growth inhibition, 48 h
measure_name: TGI

stdin: Give the measured TGI of O=C(O)C1C2C=CC(C2)C1C(=O)O (stereo unspecified) .
stdout: > 100 µM

stdin: Give the measured TGI of COc1cc(C(=O)C2C(=O)c3ccccc3C2C2(O)c3ccccc3CC2C(O)c2cc(OC)c(OC)c(OC)c2)cc(OC)c1OC (stereo unspecified) .
stdout: > 100 µM

stdin: Give the measured TGI of O=C(NNc1ccc(F)cc1)C1CCC(CNS(=O)(=O)c2ccc(Cl)c(Cl)c2)CC1 (stereo unspecified) .
stdout: > 50 µM

stdin: Give the measured TGI of `c1ccc(CN2CCC3(CC2)SSC2(CCN(Cc4ccccc4)CC2)SS3)cc1` .
stdout: > 100 µM

stdin: Give the measured TGI of Cc1cc(S(=O)(=O)NC2=NC(c3ccccc3)c3cc(Cl)ccc3N2)c(S)cc1Cl (stereo unspecified) .
stdout: > 100 µM

stdin: Give the measured TGI of `NNC1=N/C(=C\c2ccco2)C(=O)N1` .
stdout: > 100 µM

stdin: Give the measured TGI of `Clc1nc(Cl)c2c3c(sc2n1)CCCC3` .
stdout: > 100 µM

stdin: Give the measured TGI of `CCOC(=O)CSc1nnc(CSc2nc(-c3ccccc3)c(-c3ccccc3)[nH]2)n1-c1ccccc1` .
stdout: > 100 µM

stdin: Give the measured TGI of `CC(=O)C=NCC(=O)O` .
stdout: > 100 µM

stdin: Give the measured TGI of Cc1ccc(C2N=C(N)NC3=C2CCOc2c3ccc3ccccc23)cc1 (stereo unspecified) .
stdout: > 79.8 µM

stdin: Give the measured TGI of COC(C(=O)C(O)C(C)O)C1Cc2cc3cc(OC4CC(OC5CC(O)C(O)C(C)O5)C(O)C(C)O4)c(C)c(O)c3c(O)c2C(=O)C1OC1CC(OC2CC(O)C(OC3CC(C)(O)C(O)C(C)O3)C(C)O2)C(O)C(C)O1 (stereo unspecified) .
stdout: 0.0739 µg/mL

---

test system: RPMI-8226 leukemia; test: NCI tumour cell line growth inhibition, 48 h
The following molecules are shown together with reported TGI values.

Examples from the recorded data:
COC1=CC(=O)c2c(cc(COP(=O)(OCC3OC(n4cc(F)c(=O)[nH]c4=O)CC3O)N(C)CCCCCl)n2C)C1=O (stereo unspecified) : > 19.8 µM
C=C1C(=O)O[C@@H]2[C@H]1CCC(C)=C1C=CC(=O)[C@]12C : 49.7 µM
CCC(=O)NC(Nc1cccc(F)c1)(C(F)(F)F)C(F)(F)F : > 100 µM
CCC(CCC(C)C1CCC2C3CC=C4CC(OC5OC(CO)C(O)C(O)C5O)CCC4(C)C3CCC12C)C(C)C (stereo unspecified) : > 100 µM
COC(=O)NC(=Nc1ccc(Oc2ccccc2)cc1NC=O)NC(=O)OC : > 100 µM

Here's the next entry for you.
stdin: Give the measured TGI of CSc1ccc(OCC2OC2O)cc1 (stereo unspecified) .
stdout: 99.5 µM

---

tested on: NCI-H460 lung; experiment: NCI tumour cell line growth inhibition, 48 h; in the data active = GI50 below about 0.43 µM; inactive = the rest
Could you please pick one outcome from this set? TRUE = active, FALSE = inactive

Reference set, count: 3
Cc1ccc(/C=C/C(=N/N=C(N)N)c2ccccc2)cc1 : FALSE
CC(C)(CCN=C(N)Nc1ccccn1)c1ccc(C(F)(F)F)cc1 : FALSE
CC(=O)[CH-]C(=O)c1ccccc1.CC(=O)[CH-]C(=O)c1ccccc1.CC1(C)OCC(C2OC3OC(C)(C)OC3C2[O-])O1.CC1(C)OCC(C2OC3OC(C)(C)OC3C2[O-])O1.[Ti+4] (stereo not drawn) : FALSE

stdin: # outcome recorded in this test, key = `O=C1CCCCC=C1C[N+](=O)[O-]`
stdout: FALSE

stdin: # outcome recorded in this test, key = `Fc1ccc(-c2nn3c(-c4cc(C(F)(F)F)cc(C(F)(F)F)c4)nnc3s2)cc1`
stdout: FALSE

stdin: # outcome recorded in this test, key = `Clc1cc2c(nn1)Nc1ccccc1S2`
stdout: FALSE

stdin: # outcome recorded in this test, key = `c1ccc(Nc2nc(-c3ccccn3)cs2)nc1`
stdout: TRUE

stdin: # outcome recorded in this test, key = `Cc1cccc2nc3cccc(C(=O)NCCNCCNCCNC(=O)c4cccc5nc6cccc(C)c6nc45)c3nc12`
stdout: TRUE

stdin: # outcome recorded in this test, key = CC[C@@H](C(=O)[C@H](C)[C@H](O)[C@@H](C)[C@H]1O[C@H]([C@@H](CC)C(=O)O)CC[C@H]1C)C1O[C@]2(C=C[C@@H](O)[C@]3(CC[C@@](C)([C@H]4CC[C@](O)(CC)[C@H](C)O4)O3)O2)[C@H](C)C[C@@H]1C (stereo partly drawn)
stdout: TRUE

stdin: # outcome recorded in this test, key = `O=[N+]([O-])c1ccc(Sc2nc(Cl)nc(NC3CCCC3)n2)cc1`
stdout: FALSE

stdin: # outcome recorded in this test, key = `N#Cc1ccsc1NC(=O)COC(=O)c1cccc(S(=O)(=O)N2CCc3ccccc32)c1`
stdout: FALSE

stdin: # outcome recorded in this test, key = `Cn1cc(-c2csc(-c3cn(CCCCN4CCCCC4)c4ccc(F)cc34)n2)c2cccnc21`
stdout: FALSE

stdin: # outcome recorded in this test, key = CC1SC2(CCC(c3ccccc3)CC2)N(NC(=O)c2[nH]c3ccc(F)cc3c2-c2ccccc2)C1=O (stereo not drawn)
stdout: FALSE

---

test system: SNB-19 CNS; assay: NCI tumour cell line growth inhibition, 48 h
measure_name: TGI

Examples from the recorded data:
CC(=O)Nc1ccc(-c2nc3ccccc3s2)cc1C : > 100 µM
CC1CCCCN1CC(=O)c1ccc2c(c1)Sc1ccccc1O2 (configuration not stated) : 36 µM
COC(=O)C1=Cc2cc(OC)c(OC)cc2[C@H](c2ccc(OC)c(OC)c2)C1C(=O)OC (some centres not stated) : > 100 µM
CN1CC[C@]2(c3cccc(O)c3)CC(=O)/C(=C/c3ccccc3)[C@H]1C2 : 17.4 µM
S=C(N/N=C/c1ccccn1)Nc1ccc(Cl)cc1 : > 39 µM
NC(=O)C(=CNC(=S)Nc1ccc(Cl)c(Cl)c1)C(N)=O : > 100 µM

Here's the next entry for you.
stdin: Give the measured TGI of CC(=O)[CH-]C(=O)c1ccccc1.CC(=O)[CH-]C(=O)c1ccccc1.CC[C@H](/C=C/C(C)[C@H]1CCC2[C@@H]3CC=C4C[C@@H]([O-])CC[C@]4(C)C3CC[C@@]21C)C(C)C.CC[O-].[Ti+4] (some centres not stated) .
stdout: > 100 µM

Hello, the source for this data is PubChem BioAssay (NCI), in case you need it.
